Target: T1, full length human MSR1 with a C-terminal Myc tag, on HEK293.Myc.hMSR1 cells (human, UniProt P21757 1-451)
T1 sequence (looked up): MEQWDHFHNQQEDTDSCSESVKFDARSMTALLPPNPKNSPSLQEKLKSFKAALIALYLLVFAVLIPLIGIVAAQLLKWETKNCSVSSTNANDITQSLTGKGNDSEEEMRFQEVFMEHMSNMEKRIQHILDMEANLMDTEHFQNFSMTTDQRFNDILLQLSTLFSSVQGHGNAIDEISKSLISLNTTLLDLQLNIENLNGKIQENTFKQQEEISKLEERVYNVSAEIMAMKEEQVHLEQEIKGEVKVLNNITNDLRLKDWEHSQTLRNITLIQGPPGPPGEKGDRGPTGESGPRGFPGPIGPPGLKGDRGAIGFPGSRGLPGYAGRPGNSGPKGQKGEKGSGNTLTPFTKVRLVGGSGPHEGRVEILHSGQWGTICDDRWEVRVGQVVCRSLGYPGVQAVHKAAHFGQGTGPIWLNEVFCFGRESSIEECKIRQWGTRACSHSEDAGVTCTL
Assay: cell-based or functional assay
Readout: IC50 of Dil-Oxidized LDL uptake inhibition

Fill in: IC50 of Dil-Oxidized LDL uptake inhibition of H2aM25695N (antibody, mouse IgG2a, V domains shown, mouse IgG2a Fc) VH: QVQLQESGPGLVKPSETLSLTCTVTGGSISRNYWSWIRQPPGKGLEWIGYIYYSGSINYNPSLKSRVTISVDMSKNQFSLKLNSVTAADTAVYYCARDRWNWKYGMDVWGQGTTVIVSS VL: EIVLTQSPGTLSLSPGERATLSCRASQTVRNSYLAWYHQKPGQAPRLLIYGASSRATGIPDRFSGSGSGTDFTLTISRLEPEDFAVYYCQQYGSSYWTFGQGTKMEIKR is ___
> 16 nM

We next turn to a different binder, shown below.
Endpoint output: IC50 of Dil-Oxidized LDL uptake inhibition of H1H27739P-N297Q (antibody, human IgG1, V domains shown, human IgG1 Fc with N297Q) VH: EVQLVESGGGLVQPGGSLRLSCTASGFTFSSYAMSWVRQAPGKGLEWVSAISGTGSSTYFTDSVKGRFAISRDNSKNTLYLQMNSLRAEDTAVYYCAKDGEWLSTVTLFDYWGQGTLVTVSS VL: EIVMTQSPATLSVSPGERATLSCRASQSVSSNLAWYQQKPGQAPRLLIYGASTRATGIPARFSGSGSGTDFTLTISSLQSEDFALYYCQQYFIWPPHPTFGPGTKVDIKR . Value?
> 100 nM
